- study-system: mouse melanocortin-4 receptor (mouse, UniProt P56450 1-332)
- Sequence (P56450 whole entry): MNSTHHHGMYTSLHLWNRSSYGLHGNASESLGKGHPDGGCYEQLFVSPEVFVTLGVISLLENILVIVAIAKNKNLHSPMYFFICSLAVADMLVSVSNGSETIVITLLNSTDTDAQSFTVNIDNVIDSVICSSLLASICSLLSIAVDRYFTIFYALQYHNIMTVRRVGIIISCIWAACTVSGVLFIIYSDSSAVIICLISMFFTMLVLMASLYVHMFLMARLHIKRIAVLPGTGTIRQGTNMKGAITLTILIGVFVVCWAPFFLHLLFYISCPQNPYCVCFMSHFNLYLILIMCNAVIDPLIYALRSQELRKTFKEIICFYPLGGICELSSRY
- measurement-description: cell-based or functional assay
Square brackets hold non-standard residues; d marks the D form. hPhe = N[C@@H](CCc1ccccc1)C(=O)O; Nle = CCCC[C@H](N)C(=O)O; Dap = NC[C@H](N)C(=O)O
Task for the reader: assign each of the following binders its reported antagonist pA2 (Schild, agonist NDP-MSH).

Incoming: Supply recorded antagonist pA2 (Schild, agonist NDP-MSH) for cyclo(PRF[hPhe]NSF[dP]) (SMILES N=C(N)NCCC[C@@H]1NC(=O)[C@@H]2CCCN2C(=O)[C@H]2CCCN2C(=O)[C@H](Cc2ccccc2)NC(=O)[C@H](CO)NC(=O)[C@H](CC(N)=O)NC(=O)[C@H](CCc2ccccc2)NC(=O)[C@H](Cc2ccccc2)NC1=O) [c[Pro-Arg-Phe-hPhe-Asn-Ser-Phe-DPro]] here.
Outgoing: 8.6

Incoming: Supply recorded antagonist pA2 (Schild, agonist NDP-MSH) for cyclo(PRFF[Dap]SF[dP]) (SMILES N=C(N)NCCC[C@@H]1NC(=O)[C@@H]2CCCN2C(=O)[C@H]2CCCN2C(=O)[C@H](Cc2ccccc2)NC(=O)[C@H](CO)NC(=O)[C@H](CN)NC(=O)[C@H](Cc2ccccc2)NC(=O)[C@H](Cc2ccccc2)NC1=O) [c[Pro-Arg-Phe-Phe-Dap-Ser-Phe-DPro]] here.
Outgoing: 9.1

Incoming: Supply recorded antagonist pA2 (Schild, agonist NDP-MSH) for cyclo(PRF[hPhe]RA[Nle][dP]) (SMILES CCCC[C@@H]1NC(=O)[C@H](C)NC(=O)[C@H](CCCNC(=N)N)NC(=O)[C@H](CCc2ccccc2)NC(=O)[C@H](Cc2ccccc2)NC(=O)[C@H](CCCNC(=N)N)NC(=O)[C@@H]2CCCN2C(=O)[C@H]2CCCN2C1=O) [c[Pro-Arg-Phe-hPhe-Arg-Ala-Nle-DPro]] here.
Outgoing: 8.8
